# ASSAY DETAILS: Determination of the log P values (formic acid method)
# CONDITION SUMMARY: reverse-phase C18 HPLC column, pH 3.4, logP (HCOOH), intermediates tables; HPLC reverse-phase C18, acidic range pH 3.4, 55° C.
VALUE TYPE: chromatographic logP

RECORD SMILES	chromatographic logP
CCS(=O)(=O)NC(=O)c1cccc(Br)n1	1.54
O=C(NS(=O)(=O)Cc1ccccc1)c1cccc(Br)n1	2.4

A = O=C(NS(=O)(=O)c1ccccc1)c1cccc(Br)n1
B = CS(=O)(=O)NC(=O)c1nc(Br)cs1
C = CS(=O)(=O)NC(=O)c1cccc(Br)n1
Exercise: Hey, quick one: sort these by chromatographic logP, low to high? Return value: ordered labels per request.
Solution: B, C, A
